Source: PubChem BioAssay (NCI)

Kindly supply the reported TGI values for the records listed here.
- Test system: BT-549 breast
- assayText: NCI tumour cell line growth inhibition, 48 h

Challenge: Which measured TGI value corresponds to O=c1[nH]c(N/N=C\C(O)C(O)C(O)CO)nc2ccccc12 (centres undefined) ?
Response given: > 100 µM

Challenge: Another molecule to look at: Fc1cccc(Cl)c1/C=N\N=C1c2ccccc2-c2ccccc21
Response given: > 100 µM

Challenge: Another molecule to look at: c1ccc2c(c1)nc1n2CCSC1
Response given: > 100 µM

Challenge: Another molecule to look at: O=C(NCCCNCCNC(=O)c1cc(-c2ccccc2)nc2ccccc12)c1cc(-c2ccccc2)nc2ccccc12
Response given: 29.4 µM

Challenge: Another molecule to look at: O=C1/C(=C2\Sc3c(ccc(Cl)c3Cl)C2=O)Sc2c1ccc(Cl)c2Cl
Response given: > 100 µM

Challenge: Another molecule to look at: CCN(CC)CCCC(C)Nc1c2ccc(C)cc2nc2ccc(OC)cc12 (centres undefined)
Response given: 27.3 µM

Challenge: Another molecule to look at: CC(C)N(C)C(=O)C12C3C4C1C1C2C3C41C#N (centres undefined)
Response given: > 100 µM

Challenge: Another molecule to look at: Cc1cc(N/N=C/c2nc(-c3ccc(Cl)cc3)oc2C)c2cc(Cl)ccc2n1
Response given: 21.1 µM

Challenge: Another molecule to look at: Cc1ccc(S(=O)(=O)N=Nc2c(O)[nH]c3c(Cl)cc(Cl)cc23)cc1
Response given: > 100 µM

Challenge: Another molecule to look at: CC(C)Oc1cc(O)c2c(c1)OCC=C2CCC(=O)O
Response given: > 100 µM

Challenge: Another molecule to look at: NNC(=S)N1CCN(C(=S)NN)CC1
Response given: > 100 µM

Challenge: Another molecule to look at: O=c1[nH]nc(Cc2ccccc2)n1-n1cnnc1
Response given: > 100 µM

Challenge: Another molecule to look at: CC(=O)N1CCN(C23OC4(N5CCN(C(C)=O)CC5)C5C6CC(C7C6C4C72)C53)CC1 (centres undefined)
Response given: > 100 µM

Challenge: Another molecule to look at: CC(C)(C)NC(=O)[C@H]1C[C@H]2CCCC[C@H]2CN1C[C@@H](O)[C@H](Cc1ccccc1)NC(=O)[C@H](CC(N)=O)NC(=O)c1ccc2ccccc2n1
Response given: > 66.1 µM

Challenge: Another molecule to look at: O=c1[nH]c2cc3[nH]c4ncccc4c(=O)c3cc2[nH]1
Response given: > 10 µM

Challenge: Another molecule to look at: NC(=O)c1ccc(C2C3=C(CCCC3=O)OC3=C2C(=O)c2ccccc2C3=O)cc1 (centres undefined)
Response given: 2.03 µM

Challenge: Another molecule to look at: O=c1[nH]c(Nc2cccc(Cl)c2)nc2nc[nH]c12
Response given: > 100 µM

Challenge: Another molecule to look at: Nc1cc(N2CCCC2)nc(=O)n1Cc1ccccc1
Response given: > 100 µM

Challenge: Another molecule to look at: COc1cc(S(C)(=O)=O)ccc1Nc1nc2ccc(-c3ccc(NC(=O)[C@H](C)c4ccc(F)cc4)cc3)cn2n1
Response given: > 100 µM

Challenge: Another molecule to look at: COc1ccc(C(=O)N2c3ccccc3Sc3ccccc32)c(C(F)(F)F)c1
Response given: 13.6 µM

Challenge: Another molecule to look at: Cc1ccc(NC(=O)Cn2c(Br)nc3c2c(=O)n(C)c(=O)n3C)cc1
Response given: 24 µM

Challenge: Another molecule to look at: COc1ccc(Cl)cc1Nc1nc(C(F)(F)F)ccc1C(=O)N/N=C/c1cc(OC)c(OC)c(OC)c1
Response given: 3.68 µM

Challenge: Another molecule to look at: COc1ccc(C2C(C#N)=C(S)N(C3OC(CO)C(O)C(O)C3O)C(c3ccccc3)=C2C(C)=O)cc1 (centres undefined)
Response given: > 100 µM

Challenge: Another molecule to look at: O=C(N[C@H]1c2ccsc2/C(=N/O)[C@H]1O)C(F)(F)F
Response given: > 100 µM

Challenge: Another molecule to look at: Cc1cc(=O)oc2cc(O)c(CN(C)CC(=O)O)cc12
Response given: > 100 µM

Challenge: Another molecule to look at: CC(C)[C@H]1C(=O)N[C@@H](CCCN=C(N)N)C(=O)NCC(=O)N[C@@H](CC(=O)O)C(=O)N[C@H](Cc2ccccc2)C(=O)N1C
Response given: 3.13 µM

Challenge: Another molecule to look at: COc1ccc2nc3cc(Cl)ccc3c(NCCNCCCNC(=O)c3cc(-c4ccccc4)nc4ccccc34)c2c1
Response given: > 100 µM

Challenge: Another molecule to look at: CC(=O)c1cc2c(s1)C(=O)c1ccccc1C2=O
Response given: 7.75 µM

Challenge: Another molecule to look at: COc1cc(C2SCC(=O)N2c2ccc(Oc3ccc(Cl)cc3)c(Cl)c2)cc(OC)c1OC (centres undefined)
Response given: 32.5 µM

Challenge: Another molecule to look at: CC(C)OP(=O)(OC(C)C)C(C(C)C)N(C)/C(F)=N/C(F)(F)F (centres undefined)
Response given: > 100 µM

Challenge: Another molecule to look at: CC1(C)Oc2ccc(NC(=O)CCC(N)C(=O)O)cc2O1 (centres undefined)
Response given: > 100 µM

Challenge: Another molecule to look at: COc1ccc(/C=C2\N=C(c3ccccc3)N(C3Nc4cc5c(cc4S3)NC(N3C(=O)/C(=C/c4ccc(OC)cc4)N=C3c3ccccc3)S5)C2=O)cc1 (centres undefined)
Response given: 61.9 µM

Challenge: Another molecule to look at: Cc1ccc(-c2n[nH]c(=O)[nH]2)cc1[N+](=O)[O-]
Response given: > 100 µM

Challenge: Another molecule to look at: COc1ccc(CN2c3ccccc3CCc3ccccc32)cc1F
Response given: 41.2 µM

====

Kindly supply the reported TGI values for the records listed here.
- Test system: LOX IMVI melanoma
- assayText: NCI tumour cell line growth inhibition, 48 h

Challenge: Which measured TGI value corresponds to C[n+]1c2ccccc2c(C(=O)Nc2ccc(S(=O)(=O)N=C(N)N)cc2)c2ccccc21 ?
Response given: > 100 µM

Challenge: Another compound to look at: O=C(NCCCNCCNC(=O)c1cc(-c2ccccc2)nc2ccccc12)c1cc(-c2ccccc2)nc2ccccc12
Response given: 2.95 µM

Challenge: Another compound to look at: CN(C)CCNc1ncnc2nc(-c3ccc4ccccc4c3)[nH]c12
Response given: > 100 µM

Challenge: Another compound to look at: C[N+]1(C)C/C(=C\c2ccncc2)C(=O)/C(=C/c2ccncc2)C1
Response given: > 100 µM

Challenge: Another compound to look at: CC(=O)OCC=C(CCl)CCC(Br)C(C)(C)Br (mixture of isomers)
Response given: > 10 µM

Challenge: Another compound to look at: c1nnc(NCNc2nncs2)s1
Response given: > 100 µM

Challenge: Another compound to look at: O=c1[nH]c(=O)n(C2OC3COC2C3O)cc1F (stereo not given)
Response given: > 100 µM

Challenge: Another compound to look at: C[C@]12CC[C@H](O)CC1=CC[C@@H]1[C@@H]2CC[C@]2(C)/C(=N/OCCN3CCCC3)CC[C@@H]12
Response given: 33.4 µM

Challenge: Another compound to look at: Nc1ccc2[nH]c(C(=O)N3CC(CCl)c4c3cc(N)c3ccccc43)cc2c1 (stereo not given)
Response given: 0.0145 µM

Challenge: Another compound to look at: CC(C)OP(=O)(OC(C)C)C(C(C)C)N(C)/C(F)=N/C(F)(F)F (stereo not given)
Response given: > 100 µM

Challenge: Another compound to look at: CC(=Nc1ccncc1)C(C)=Nc1ccncc1
Response given: 42.1 µM

Challenge: Another compound to look at: O=S1(=O)c2ccccc2NC(=S)CC1c1ccccc1 (stereo not given)
Response given: > 100 µM

Challenge: Another compound to look at: CCOC(=O)c1cc(/C=C/C(C)=C/C(=O)OC)n(C)c1C
Response given: > 100 µM

Challenge: Another compound to look at: CN=C1SC(=Nc2ccc(N(C)C)cc2)N1C
Response given: > 100 µM

Challenge: Another compound to look at: Cn1nc(S(N)(=O)=O)s/c1=N/C(N)=S
Response given: > 100 µM

====

Kindly supply the reported TGI values for the records listed here.
- System: CCRF-CEM leukemia
- assayText: NCI tumour cell line growth inhibition, 48 h

Challenge: Which measured TGI value corresponds to CCOc1cc(C2CC(c3ccc(NS(=O)(=O)c4cc([N+](=O)[O-])ccc4C)cc3)=NN2)ccc1O (stereo not drawn) ?
Response given: > 100 µM

Challenge: Another compound to look at: CC(=O)OC1[C@H]2c3cc4c(cc3CN3CCC(=C[C@@H]1O)C23)OCO4 (stereo partly drawn)
Response given: > 100 µM

Challenge: Another compound to look at: CN(C)CCNc1ncnc2nc(-c3ccc4ccccc4c3)[nH]c12
Response given: > 100 µM
